All values here come from patent US11473088B2.

- Tested on: four melanoma cell lines
- assay.protocol: Cell proliferation / EC50 determination
- measurement.setup: Homo sapiens, read-out: EC50 ranges for the four melanoma cell lines
Property: EC50; scope: individual compounds

Look over these answered cases.
COc1cccc2c1C(=O)c1c(O)c3c(c(O)c1C2=O)C[C@@](O)(C(=O)CO)C[C@@H]3O[C@H]1C[C@H](N)[C@H](O)[C@H](C)O1 [doxorubicin] :: 25 to 100 nM
C=C1C(=O)[C@]23[C@H](O)[C@H]1CC[C@H]2[C@@]12CO[C@]3(O)[C@@H](O)[C@@H]1C(C)(C)CC[C@@H]2O [oridonin] :: 2000 to 8000 nM
CCCS(=O)(=O)Nc1ccc(F)c(C(=O)c2c[nH]c3ncc(-c4ccc(Cl)cc4)cc23)c1F [vemurafenib] :: 2 to 20 nM

Next, consider the following compound.
Lab note: compound CC(=O)O[C@H]1C(=O)[C@@]2(C)[C@H]([C@H](OC(=O)c3ccccc3)[C@]3(O)C[C@H](OC(=O)[C@H](O)[C@@H](NC(=O)c4ccccc4)c4ccccc4)C(C)=C1C3(C)C)[C@]1(OC(C)=O)CO[C@@H]1C[C@@H]2O [paclitaxel, Paclitaxel] tested on four melanoma cell lines; recorded EC50 was 2 to 8 nM
